# measurement.target: soluble recombinant integrin αIIbβ3, P08514;P05106
# measurement.protocol: ELISA-type binding assay (OD450)
# measurement.conditions: chain shown with the change; CD62P 50 µg/ml; 1 mM Mn2+; parent: est. 0.54; read off a plot
observed.property: response (OD450)
Use OD450 as the unit, but write only the number.

[[record]]
binder = "CD62P (P-selectin) lectin domain (residues 1–117), wild type R54E; K55E (protein) WTYHYSTKAYSWNISRKYCQNRYTDLVAIQNKNEIDYLNKVLPYYSSYYWIGIEENNKTWTWVGTKKALTNEAENWADNEPNNKRNNEDCVEIYIKSPSAPGKWNDEHCLKKKHALC"
meas_value = 1.3


Could you now look at the following binder, please?
Q: Entry under review: CD62P (P-selectin) lectin domain (residues 1–117), wild type E88D (protein) WTYHYSTKAYSWNISRKYCQNRYTDLVAIQNKNEIDYLNKVLPYYSSYYWIGIRKNNKTWTWVGTKKALTNEAENWADNEPNNKRNNDDCVEIYIKSPSAPGKWNDEHCLKKKHALC . Reported response?
Result: 0.76
